Hello, the source for this data is patent US20040009988A1, in case you need it.

Biological target: UniProt P55157
Sequence (P55157 19-894): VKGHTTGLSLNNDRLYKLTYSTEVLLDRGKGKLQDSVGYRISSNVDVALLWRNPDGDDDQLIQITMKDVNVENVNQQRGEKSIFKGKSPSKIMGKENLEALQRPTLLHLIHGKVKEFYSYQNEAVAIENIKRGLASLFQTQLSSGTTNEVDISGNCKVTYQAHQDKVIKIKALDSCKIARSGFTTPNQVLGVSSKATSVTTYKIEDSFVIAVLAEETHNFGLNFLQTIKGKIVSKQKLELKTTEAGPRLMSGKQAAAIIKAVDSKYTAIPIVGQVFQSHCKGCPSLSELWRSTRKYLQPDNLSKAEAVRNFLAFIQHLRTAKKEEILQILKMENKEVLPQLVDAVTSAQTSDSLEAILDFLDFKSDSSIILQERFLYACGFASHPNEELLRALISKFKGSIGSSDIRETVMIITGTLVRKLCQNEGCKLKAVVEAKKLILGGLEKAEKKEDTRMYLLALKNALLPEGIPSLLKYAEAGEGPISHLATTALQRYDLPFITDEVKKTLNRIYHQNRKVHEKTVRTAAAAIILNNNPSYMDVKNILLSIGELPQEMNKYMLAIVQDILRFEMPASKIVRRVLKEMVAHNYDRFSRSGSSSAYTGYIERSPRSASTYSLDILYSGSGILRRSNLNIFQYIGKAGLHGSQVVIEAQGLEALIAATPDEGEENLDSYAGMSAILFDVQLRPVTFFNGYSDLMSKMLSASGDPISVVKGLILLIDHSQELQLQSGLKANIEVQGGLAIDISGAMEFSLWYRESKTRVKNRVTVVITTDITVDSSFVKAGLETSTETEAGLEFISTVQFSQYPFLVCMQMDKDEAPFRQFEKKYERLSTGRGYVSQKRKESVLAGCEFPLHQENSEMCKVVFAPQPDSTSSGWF
Sequence (P07237 18-508 partner): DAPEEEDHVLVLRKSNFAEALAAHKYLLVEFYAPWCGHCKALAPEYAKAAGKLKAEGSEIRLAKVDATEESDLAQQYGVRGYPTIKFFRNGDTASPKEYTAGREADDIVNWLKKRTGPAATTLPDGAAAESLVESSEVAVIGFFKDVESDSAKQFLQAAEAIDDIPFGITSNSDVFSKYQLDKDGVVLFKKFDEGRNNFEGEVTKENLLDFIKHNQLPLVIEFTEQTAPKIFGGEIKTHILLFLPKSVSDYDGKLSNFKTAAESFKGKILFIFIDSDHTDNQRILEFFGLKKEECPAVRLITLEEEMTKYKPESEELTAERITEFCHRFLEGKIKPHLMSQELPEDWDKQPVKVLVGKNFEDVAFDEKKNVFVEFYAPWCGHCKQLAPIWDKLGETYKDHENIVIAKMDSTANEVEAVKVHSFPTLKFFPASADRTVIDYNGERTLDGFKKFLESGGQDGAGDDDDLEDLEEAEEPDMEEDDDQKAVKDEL
Assay: human MTP activity assay (SPA, 3H-triolein transfer between liposomes)
Type: biochemical
Conditions: MTP-mediated 3H-triolein transfer from donor to acceptor liposomes, 25 min at 37° C., streptavidin-SPA beads
Measured pIC50, listed per entry for reference.
Scale explanation: pIC50 corresponds to minus log10 of a concentration expressed in moles per litre.

> print(dat)
                                   compound      testtarget  readoutvalue
1  Cc1cccc(C(=O)Nc2ccc(N3CCN(Cc4ccc[nH]4)CC3)nc2)c1-c1ccc(C(C)C)cc1 [Example 5]  UniProt P55157         10.00

## Task Give the measured pIC50 of Cc1cccc(C(=O)Nc2ccc(N3CCN(CC(N)=O)CC3)nc2)c1-c1ccc(C(C)C)cc1 [Example 1] .
## Result 9.52

* * *

endpointLabel: melting point

Worked examples, 3 compounds total:
> print(dat)
                                 smilestext   readoutvalue
1  Cc1noc(-c2cccc(CN3CCN(c4ccc(NC(=O)c5cccc(C)c5-c5ccc(C(C)C)cc5)cn4)CC3)c2)n1  150 to 152 °C
2  CC(C)c1ccc(-c2c(C(=O)Nc3ccc(N4CCN(C(C)C)CC4)nc3)cccc2C(C)C)cc1         136 °C
3  COc1cccc(C(=O)Nc2ccc(N3CCN(Cc4ccc[nH]4)CC3)nc2)c1-c1ccc(C(C)C)cc1  197 to 199 °C

## Task Give the measured melting point of COc1cccc(C(=O)Nc2ccc(N3CCN(Cc4cccc(-c5nc(C)no5)c4)CC3)nc2)c1-c1ccc(C(C)C)cc1 .
## Result 136 to 138 °C

## Task Give the measured melting point of Cc1cccc(C(=O)Nc2ccc(N3CCN(Cc4cccc(C#N)c4)CC3)nc2)c1-c1ccc(C(F)(F)F)cc1 .
## Result 164 to 166 °C

## Task Give the measured melting point of Cc1cccc(C(=O)Nc2ccc(N3CCN(CC(N)=O)CC3)nc2)c1-c1ccc(C(C)C)cc1 .
## Result 200 to 202 °C

## Task Give the measured melting point of CC(C)c1ccc(-c2c(C(=O)Nc3ccc(N4CCN(Cc5cccc(C#N)c5)CC4)nc3)cccc2C(C)C)cc1 .
## Result 151 °C

* * *

Measured melting point, listed per entry for reference.
Report the value in °C with no unit label.

Worked examples, 2 molecules total:
> print(dat)
                                   molecule  readoutvalue
1  N#Cc1cccc(CN2CCN(c3ccc(NC(=O)c4ccccc4-c4ccc(C(F)(F)F)cc4)cn3)CC2)c1 [Example 17]           168
2  Cc1cccc(C(=O)Nc2ccc(N3CCN(Cc4ccc[nH]4)CC3)nc2)c1-c1ccc(C(C)C)cc1 [Example 5]           130

## Task Give the measured melting point of CC(C)c1ccc(-c2c(C(=O)Nc3ccc(N4CCN(CC(N)=O)CC4)nc3)cccc2C(C)C)cc1 [Example 4] .
## Result 169

* * *

endpointLabel: melting point

Worked examples, 8 molecules total:
> print(dat)
                                   molecule   readoutvalue
1  Cc1noc(-c2cccc(CN3CCN(c4ccc(NC(=O)c5ccccc5-c5ccc(C(F)(F)F)cc5)cn4)CC3)c2)n1 [Example 9]  192 to 194 °C
2  Cc1noc(-c2cccc(CN3CCN(c4ccc(NC(=O)c5cccc(C(C)C)c5-c5ccc(C(C)C)cc5)cn4)CC3)c2)n1 [Example 13]         125 °C
3  C=C(C)N1CCN(c2ccc(NC(=O)c3cccc(C(C)C)c3-c3ccc(C(C)C)cc3)cn2)CC1 [Example 25]         124 °C
4  Cc1cccc(C(=O)Nc2ccc(N3CCN(CC(N)=O)CC3)nc2)c1-c1ccc(C(F)(F)F)cc1 [Example 2]  180 to 181 °C
5  CC(C)c1ccc(-c2c(C(=O)Nc3ccc(N4CCN(C)CC4)nc3)cccc2C(C)C)cc1 [Example 24]  152 to 154 °C
6  Cc1ccc(C(=O)Nc2ccc(N3CCN(Cc4cccc(C#N)c4)CC3)nc2)c(-c2ccc(C(F)(F)F)cc2)c1 [Example 22]  158 to 160 °C
7  CCCN1CCN(c2ccc(NC(=O)c3cccc(C(C)C)c3-c3ccc(C(C)C)cc3)cn2)CC1 [Example 23]  126 to 128 °C
8  O=C(Nc1ccc(N2CCN(Cc3ccco3)CC2)nc1)c1ccccc1-c1ccc(C(F)(F)F)cc1 [Example 14]         149 °C

## Task Give the measured melting point of COc1cccc(C(=O)Nc2ccc(N3CCN(CC(N)=O)CC3)nc2)c1-c1ccc(C(C)C)cc1 [Example 3] .
## Result 210 to 212 °C

* * *

endpointLabel: melting point

> print(dat)
                                 smilestext   readoutvalue
1  Cc1cccc(C(=O)Nc2ccc(N3CCN(Cc4cccc(C#N)c4)CC3)nc2)c1-c1ccc(C(C)C)cc1  154 to 156 °C
2  Cc1ccc(C(=O)Nc2ccc(N3CCN(Cc4cccc(C#N)c4)CC3)nc2)c(-c2ccc(C(C)C)cc2)c1  161 to 163 °C
3  COc1cccc(C(=O)Nc2ccc(N3CCN(Cc4cccc(C#N)c4)CC3)nc2)c1-c1ccc(C(C)C)cc1  194 to 196 °C

## Task Give the measured melting point of Cc1cccc(C(=O)Nc2ccc(N3CCN(Cc4ccc[nH]4)CC3)nc2)c1-c1ccc(C(F)(F)F)cc1 .
## Result 142 to 144 °C
